assay: Human liver microsome stability; format: in vitro ADME; settings: pooled human liver microsomes 0.5 mg/mL, 1 μM compound, NADPH 1 mM, 37° C., 0-60 min
readout-type: HLM Metabolism t1/2 (h)
Give the number; h is assumed, so skip it.

[[record]]
molecule = "CNC(=O)C1(Oc2ccc(C(C)N3C[C@@H](C)n4nc5c(c4C3=O)CN(C(=O)c3ccc(Cl)c(C#N)c3)[C@H](C)C5)cc2)CC1 (single isomer, unassigned) [Compound 13B]"
endpoint_result = 2.15


Returns the measured HLM Metabolism t1/2 for the input molecule. Input: CC(c1ccnc(Cl)c1)N1C[C@@H](C)n2nc3c(c2C1=O)CN(C(=O)c1ccc(Cl)c(Cl)c1)[C@H](C)C3 (single isomer, unassigned) [Compound 31B]
2.12

###

test: Human liver microsome stability; format: in vitro ADME; conditions: pooled human liver microsomes 0.5 mg/mL, 1 μM compound, NADPH 1 mM, 37° C., 0-60 min
readout-type: HLM Metabolism t1/2

Consider the worked cases shown below.
[[record]]
compound = "CC(c1ccc(=O)n(C)n1)N1C[C@@H](C)n2nc3c(c2C1=O)CN(C(=O)c1ccc(Cl)c(Cl)c1)[C@H](C)C3 (single isomer, unassigned) [Compound 55B]"
readout_type = "HLM Metabolism t1/2"
endpoint_result = ">3 h"

[[record]]
compound = "CNC(=O)c1ccc(C(C)N2C[C@@H](C)n3nc4c(c3C2=O)CN(C(=O)c2ccc(Cl)c(Cl)c2)[C@H](C)C4)cn1 (single isomer, unassigned) [Compound 24B]"
readout_type = "HLM Metabolism t1/2"
endpoint_result = ">3 h"


Kindly consider the entry below.
Requested field: HLM Metabolism t1/2. Item: CC(c1ncc(C(F)(F)F)cn1)N1C[C@@H](C)n2nc3c(c2C1=O)CN(C(=O)c1ccc(Cl)c(Cl)c1)[C@H](C)C3 (single isomer, unassigned) [Compound 40B]
>3 h

###

system: HBV (HepG2.117 cell line, inducibly HBV producing); experiment: Anti-HBV activity, intracellular HBV DNA by real-time PCR in HepG2.117 cell line; assay type: cell-based, hepatitis B virus; settings: HepG2.117 cells, 3 days of treatment
readout-type: EC50 (µM)
// units = µM; emit number, no label

# count of solved cases: 10
[[record]]
compound = "CC(c1cnc(C(F)(F)F)nc1)N1C[C@@H](C)n2nc3c(c2C1=O)CN(C(=O)c1ccc(Cl)c(Cl)c1)[C@H](C)C3 (single isomer, unassigned) [Compound 34B]"
readout_type = "EC50"
endpoint_result = 0.052

[[record]]
compound = "CC(c1cc(F)ccn1)N1C[C@@H](C)n2nc3c(c2C1=O)CN(C(=O)c1ccc(Cl)c(Cl)c1)[C@H](C)C3 (single isomer, unassigned) [Compound 32A]"
readout_type = "EC50"
endpoint_result = 0.016

[[record]]
compound = "CC(c1ccn(C(F)F)c(=O)c1)N1C[C@@H](C)n2nc3c(c2C1=O)CN(C(=O)c1ccc(Cl)c(C(F)(F)F)c1)[C@H](C)C3 (single isomer, unassigned) [Compound 49B]"
readout_type = "EC50"
endpoint_result = 0.013

[[record]]
compound = "CC(c1ccn(C(C)C)c(=O)c1)N1C[C@@H](C)n2nc3c(c2C1=O)CN(C(=O)c1ccc(Cl)c(C(F)(F)F)c1)[C@H](C)C3 (single isomer, unassigned) [Compound 47B]"
readout_type = "EC50"
endpoint_result = 0.016

[[record]]
compound = "CC(c1cnc(C(F)(F)F)nc1)N1C[C@@H](C)n2nc3c(c2C1=O)CN(C(=O)c1ccc(Cl)c(Cl)c1)[C@H](C)C3 (single isomer, unassigned) [Compound 34A]"
readout_type = "EC50"
endpoint_result = 0.63

[[record]]
compound = "Cc1ncnn1-c1ccc(C(C)N2C[C@@H](C)n3nc4c(c3C2=O)CN(C(=O)c2ccc(Cl)c(Cl)c2)[C@H](C)C4)cn1 (relative stereo) [Compound 25A]"
readout_type = "EC50"
endpoint_result = 0.23

[[record]]
compound = "CC(c1ccn(CC(F)(F)F)c(=O)c1)N1C[C@@H](C)n2nc3c(c2C1=O)CN(C(=O)c1ccc(Cl)c(Cl)c1)[C@H](C)C3 (single isomer, unassigned) [Compound 51B]"
readout_type = "EC50"
endpoint_result = 0.028

[[record]]
compound = "CC(c1ccc(C(C)(C)O)nc1)N1C[C@@H](C)n2nc3c(c2C1=O)CN(C(=O)c1cc(F)c(Cl)c(F)c1)[C@H](C)C3 (single isomer, unassigned) [Compound 60A]"
readout_type = "EC50"
endpoint_result = 0.3

[[record]]
compound = "CC(c1ccn(CC(C)(C)O)c(=O)c1)N1C[C@@H](C)n2nc3c(c2C1=O)CN(C(=O)c1ccc(Cl)c(C(F)(F)F)c1)[C@H](C)C3 (single isomer, unassigned) [Compound 64A]"
readout_type = "EC50"
endpoint_result = 0.039

[[record]]
compound = "C[C@@H]1Cc2nn3c(c2CN1C(=O)c1ccc(Cl)c(C#N)c1)C(=O)N([C@@H](C)c1ccc(OC(F)F)cc1)C[C@H]3C (relative stereo)"
readout_type = "EC50"
endpoint_result = 0.021


Please report the recorded EC50 for CC(c1ccn(CC(F)(F)F)n1)N1C[C@@H](C)n2nc3c(c2C1=O)CN(C(=O)c1ccc(Cl)c(C#N)c1)[C@H](C)C3 (single isomer, unassigned) [Compound 42A] .
0.12

Let us now turn to CC(c1ncccn1)N1C[C@@H](C)n2nc3c(c2C1=O)CN(C(=O)c1ccc(Cl)c(Cl)c1)[C@H](C)C3 (single isomer, unassigned) [Compound 39B]
0.035

Now this one: CC(c1cnc(C2CC2)cn1)N1C[C@@H](C)n2nc3c(c2C1=O)CN(C(=O)c1ccc(Cl)c(Cl)c1)[C@H](C)C3 (single isomer, unassigned) [Compound 3A]
0.068

What about CC(c1ncccn1)N1C[C@@H](C)n2nc3c(c2C1=O)CN(C(=O)c1ccc(Cl)c(Cl)c1)[C@H](C)C3 (single isomer, unassigned) [Compound 39A] ?
0.13

Cool, now CNS(=O)(=O)c1ccc(C(C)N2C[C@@H](C)n3nc4c(c3C2=O)CN(C(=O)c2ccc(Cl)c(Cl)c2)[C@H](C)C4)cc1 (single isomer, unassigned) [Compound 17B]
0.026
